test: in vitro; type: cell-based, mouse; details: mouse; AML12, 24 h incubation, WST-1, free compounds in 1% DMSO; read-out: IC50 (cytotoxicity)
READOUT KIND: IC50 at 24 h

Given the entry O=[N+]([O-])c1ccc(O)c([N+](=O)[O-])c1 , report its measured IC50 at 24 h.
500 to 600 µM

###

format: physicochemical; details: octanol/distilled water (pH 5.5), mean ± StD
READOUT KIND: LogPoct
In your answer, state the number alone without any accompanying words.

CHEMICAL STRING: CCC(=O)Oc1ccc([N+](=O)[O-])cc1[N+](=O)[O-]
LogPoct: 1.91

Endpoint output: LogPoct of CCCCCC(=O)Oc1ccc([N+](=O)[O-])cc1[N+](=O)[O-] . Value?
3.07

For CCCCCCCCCCCCCCCC(=O)Oc1ccc([N+](=O)[O-])cc1[N+](=O)[O-] , what is its reported LogPoct?
5.18

GET /values?readout=LogPoct&item= O=[N+]([O-])c1ccc(O)c([N+](=O)[O-])c1
1.61
